Taken from paper PMC12186339.

Here, each record is paired with measured pEC50 data.
Test system: N. fowleri strain TY (ATCC 30107) trophozoites
Assay: In vitro growth inhibition of N. fowleri trophozoites (CellTiter-Glo)
Assay type: cell-based, Naegleria fowleri
Conditions: Naegleria fowleri, ATCC30107; trophozoites, 48 hours; read-out: N. fowleri EC50
pEC50: −log10 of the molar value.

molecule	assayed.system	pEC50
O=C1C(S(=O)(=O)O)CCCN1O (stereo not drawn)	N. fowleri strain TY (ATCC 30107) trophozoites	< 4.60
O=C1[C@@H](P(=O)(O)O)[C@@H]2CCCC[C@H]2CN1O	N. fowleri strain TY (ATCC 30107) trophozoites	< 4.60

-- ask Indicate its recorded pEC50; the molecule in question is O=C1C(P(=O)(O)O)c2ccccc2CN1O (stereo not drawn)
-- reply < 4.60
